system: P-gp (human MDR1); assay: MDCKII-MDR1 A→B permeability; settings: dog, MDCK-MDR1
measured_endpoint: Papp A→B (×10⁻⁶ cm/s)
Please reply with the bare figure in ×10⁻⁶ cm/s and do not write the unit itself.

In: Form entry - test system: P-gp (human MDR1); read-out: Papp A→B; compound: CCOC(=O)c1ccc(OCCC2CCN(c3ccc(C)nn3)CC2)cc1 [Compound S-58, Pirodavir, reference compound]
Out: 9

====

tested on: RD cells; test: RD cell cytotoxicity by MTT assay on uninfected cells; settings: geometric mean, listed as CP-11526092 (2)
measured_endpoint: CC50

In: Entry Cc1cc(-c2noc(C(F)(F)F)n2)ccc1OCCCc1cc(C(=O)N(C)C)no1 [Compound 2, CP-11526092, reference compound] has what CC50?
Out: > 50 µM
